B1: Homeobox protein cut-like 1, residues 941 to 1008; numbered along this chain, P39880 (parent)
chain: QEVDTIELTRQVKEKLAKNGICQRIFGEKVLGLSQGSVSDMLSRPKPWSKLTQKGREPFIRMQLWLNG

Variants of: B1
Test: abundance fitness (aPCA) (normalised: wild type 0, dead -1); higher = more abundant; growth selection in yeast, the domain comes from the species named
Conditions: Homo sapiens
Classify on abundance fitness using bin 1 = under -0.2, bin 2 = from -0.2 up to -0.05, bin 3 = -0.05 and over

Completed entries (count: 8):
1) R10F ... bin 1
2) T9P ... bin 1
3) L16S ... bin 3
4) W48Y ... bin 1
5) L42T ... bin 1
6) C22D ... bin 3
7) M41C ... bin 3
8) S34P ... bin 3

# input Bin this entry: K15E
# output bin 2

# input Bin this entry: A17E
# output bin 2

# input Bin this entry: Q35T
# output bin 3

# input Bin this entry: K46V
# output bin 2

# input Bin this entry: K15N
# output bin 3

# input Bin this entry: S43C
# output bin 2

# input Bin this entry: K46S
# output bin 3

# input Bin this entry: Q11C
# output bin 1

# input Bin this entry: I21P
# output bin 1

# input Bin this entry: S37E
# output bin 3

# input Bin this entry: A17I
# output bin 3

# input Bin this entry: K50Q
# output bin 3

# input Bin this entry: G27Q
# output bin 1

# input Bin this entry: V38K
# output bin 2
